Catalogue of interaction score values
Subject Of Test: T1, 4H3414-AA
T1 chain: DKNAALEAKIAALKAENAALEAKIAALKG
Assay Summary: two-hybrid library CCmax;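 note: natural log of median RNA to DNA barcode read ratio; higher means stronger binding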
Conditions Used: mean of both orientations
Measured Parameter: interaction score

                                      binder  reported_measurement
 0  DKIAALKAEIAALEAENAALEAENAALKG [4H2580-AA]                 -1.09
 1  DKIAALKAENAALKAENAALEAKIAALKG [4H2774-AA]                  -1.5
 2  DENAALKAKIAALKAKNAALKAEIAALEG [4H1913-AA]                   1.8
 3  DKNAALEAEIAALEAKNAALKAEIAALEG [4H3129-AA]                  2.24
 4  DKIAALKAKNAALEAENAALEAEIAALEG [4H2961-AA]                 -1.46
 5  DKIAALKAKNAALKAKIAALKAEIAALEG [4H3049-AA]                -0.414
 6  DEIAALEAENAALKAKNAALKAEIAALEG [4H249-AA]                 0.535
 7  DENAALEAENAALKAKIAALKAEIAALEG [4H1257-AA]                 -1.01
 8  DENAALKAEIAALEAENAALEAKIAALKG [4H1558-AA]                   1.1
 9  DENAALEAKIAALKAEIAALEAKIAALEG [4H1349-AA]                 -0.92
10  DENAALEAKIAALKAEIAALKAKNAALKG [4H1360-AA]                 -1.25
11  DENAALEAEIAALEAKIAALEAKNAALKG [4H1064-AA]                -0.952
12  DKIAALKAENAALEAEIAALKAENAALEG [4H2699-AA]                -0.748
13  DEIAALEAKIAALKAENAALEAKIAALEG [4H341-AA]                  0.22

Origin of values: paper PMC10397247
